The reported numbers originate from patent US10544090B2.

# System: MOLT4
# assay.comment: Cytotoxicity against cancer cell lines (Example 5), Molt4
# Format: cell-based
# stated.conditions: Tables 5-12; read-out: IC50 Molt4
pIC50: −log10 of the molar value.

{"molecule": "[N-]=[N+]=NC(=O)c1cc(OCc2ccccc2)c2c(c1)C(=O)c1cccc(OCc3ccccc3)c1C2=O [BW-AQ-149]", "target.or.system": "MOLT4", "pIC50": "< 4.60"}
{"molecule": "Nc1cc(OCc2ccccc2)c2c(c1)C(=O)c1cccc(OCc3ccccc3)c1C2=O [BW-AQ-150]", "target.or.system": "MOLT4", "pIC50": "< 4.60"}
{"molecule": "O=C(OCc1ccccc1)c1cc(OCc2ccccc2)c2c(c1)C(=O)c1cccc(OCc3ccccc3)c1C2=O [BW-AQ-148]", "target.or.system": "MOLT4", "pIC50": "< 4.60"}
{"molecule": "COc1cccc2c1C(=O)c1c(OC)cc(NS(=O)(=O)CCl)cc1C2=O [BW-AQ-138]", "target.or.system": "MOLT4", "pIC50": "< 5.80"}
{"molecule": "COc1cccc2c1C(=O)c1c(OC)cc(NC(=O)C(F)(F)F)cc1C2=O [BW-AQ-132]", "target.or.system": "MOLT4", "pIC50": "< 5.80"}
{"molecule": "CN1CCN(CC(=O)Nc2cc(O)c3c(c2)C(=O)c2cccc(O)c2C3=O)CC1 [BW-AQ-114]", "target.or.system": "MOLT4", "pIC50": 6.55}
{"molecule": "C=CCOc1cccc2c1C(=O)c1c(OCC=C)cc(NC(=O)CN=[N+]=[N-])cc1C2=O [BW-AQ-164]", "target.or.system": "MOLT4", "pIC50": "< 4.60"}
{"molecule": "C=CCOc1cccc2c1C(=O)c1c(OCC=C)cc(NC(=O)CI)cc1C2=O [BW-AQ-163]", "target.or.system": "MOLT4", "pIC50": "< 4.60"}
{"molecule": "COc1cccc2c1C(=O)c1c(OC)cc(NC(C)=O)cc1C2=O [BW-AQ-134]", "target.or.system": "MOLT4", "pIC50": "< 5.80"}
{"molecule": "COc1cccc2c1C(=O)c1c(OC)cc(NC(=O)C(F)F)cc1C2=O [BW-AQ-171]", "target.or.system": "MOLT4", "pIC50": "< 4.60"}
{"molecule": "CCOc1cccc2c1C(=O)c1c(OCC)cc(NC(=O)CCCCl)cc1C2=O [BW-AQ-179]", "target.or.system": "MOLT4", "pIC50": 4.82}
{"molecule": "COc1cccc2c1C(=O)c1c(OC)cc(NC(=O)CCCl)cc1C2=O [BW-AQ-173]", "target.or.system": "MOLT4", "pIC50": "< 4.60"}
{"molecule": "C=CCOc1cccc2c1C(=O)c1c(OCC=C)cc(NC(=O)CCl)cc1C2=O [BW-AQ-161]", "target.or.system": "MOLT4", "pIC50": "< 5.00"}
{"molecule": "CCOc1cccc2c1C(=O)c1c(OCC)cc(NC(=O)CN)cc1C2=O [BW-AQ-166]", "target.or.system": "MOLT4", "pIC50": "< 4.60"}
{"molecule": "CCOc1cccc2c1C(=O)c1c(OCC)cc(NC(=O)COCc3ccccc3)cc1C2=O [BW-AQ-182]", "target.or.system": "MOLT4", "pIC50": 4.77}
{"molecule": "COC(=O)c1cc(OCCN=[N+]=[N-])c2c(c1)C(=O)c1cccc(OCCN=[N+]=[N-])c1C2=O [BW-AQ-120]", "target.or.system": "MOLT4", "pIC50": "< 5.80"}
{"molecule": "COCC(=O)Nc1cc(OC)c2c(c1)C(=O)c1cccc(OC)c1C2=O [BW-AQ-170]", "target.or.system": "MOLT4", "pIC50": "< 4.60"}
